- TEST_TARGET: T1, biotin-peptide MADDYGSEST (human)
- T1 peptide: Biotin-MADDYGSEST
- EXPERIMENT_NOTES: ELISA biotin-peptide; scFv 10 ug/mL; repII
Where no end group is shown, it is not given here. The star is where a group is joined. Biotin = O=C1N[C@H]2[C@H](CS[C@H]2CCCCC(=O)*)N1
VALUE_TYPE: OD450 (OD)
Give the value in OD but do not write OD after it.

The binder listed as Comparative antibody 1 (Comp-1) scFv, SEQ ID NO: 10 from WO2023/037125 A1, His-tagged (scFv) scFv: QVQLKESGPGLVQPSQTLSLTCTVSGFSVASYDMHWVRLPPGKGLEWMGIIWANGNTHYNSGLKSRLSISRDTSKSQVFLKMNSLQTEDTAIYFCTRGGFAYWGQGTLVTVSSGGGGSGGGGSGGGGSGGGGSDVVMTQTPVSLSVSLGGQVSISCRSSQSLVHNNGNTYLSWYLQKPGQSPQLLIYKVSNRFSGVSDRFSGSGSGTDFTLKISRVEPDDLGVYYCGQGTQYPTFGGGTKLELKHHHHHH shows OD450 equal to 0.07

Value of OD450 reported for the binder Comparative antibody 2 (Comp-2) scFv, 243LO326 (VH SEQ ID NO: 51 and VL SEQ ID NO: 52 of WO 2022/195028 A2), His-tagged (scFv) scFv: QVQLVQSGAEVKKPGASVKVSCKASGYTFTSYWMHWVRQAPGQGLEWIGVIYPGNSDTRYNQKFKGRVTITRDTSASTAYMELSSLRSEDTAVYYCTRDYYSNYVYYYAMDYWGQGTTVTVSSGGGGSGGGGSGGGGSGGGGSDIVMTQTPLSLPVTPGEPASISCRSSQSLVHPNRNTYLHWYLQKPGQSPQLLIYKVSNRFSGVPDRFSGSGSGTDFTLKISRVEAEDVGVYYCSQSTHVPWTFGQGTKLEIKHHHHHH is 0.09

Lab book: OD450 of Comparative antibody 3 (Comp-3) scFv, SR_92R (Somovilla-Crespo et al. 2018), His-tagged (scFv) scFv: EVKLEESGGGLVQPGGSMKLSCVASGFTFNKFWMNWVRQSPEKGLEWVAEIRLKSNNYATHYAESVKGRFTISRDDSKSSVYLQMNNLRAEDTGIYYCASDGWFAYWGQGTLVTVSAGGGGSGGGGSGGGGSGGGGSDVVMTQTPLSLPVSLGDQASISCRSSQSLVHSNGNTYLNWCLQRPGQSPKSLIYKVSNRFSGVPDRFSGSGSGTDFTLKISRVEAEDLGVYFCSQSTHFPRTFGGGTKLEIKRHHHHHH noted as 0.13

Data origin: patent US20260232732A1
